System: ATP;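 note: ATP exposure 15 min at 22 °C before imaging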
protocolText: switch fluorescence ratio, 500 uM ATP over buffer (Cy3 cluster intensity, sum of 5 cycles each) (fold (ratio)); higher = stronger signal-on switching upon ATP binding; sequences stand for … in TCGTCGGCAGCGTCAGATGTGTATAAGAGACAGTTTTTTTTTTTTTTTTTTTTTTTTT…TC
conditionDescription: aptamer strand: ATP DNA aptamer (quencher-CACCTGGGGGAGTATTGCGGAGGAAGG + anchor), 100 nM annealed; ATP concentration: 500 uM
Classify by measured switch fluorescence ratio: true if it is equal to or exceeds 1, false if it is smaller.

[[record]]
orderedresidues = "GTTGCAGGTG"
label = "true"

[[record]]
orderedresidues = "GTTATTCCGG"
label = "true"

[[record]]
orderedresidues = "GGAACTGTGC"
label = "false"


Decide: is the reported value of switch fluorescence ratio for "CCGCGGATGG" equal to or greater than 1?
true

Decide: is the reported value of switch fluorescence ratio for "TAGGTCAGGG" equal to or greater than 1?
false

Decide: is the reported value of switch fluorescence ratio for "GGGGTAGTAC" equal to or greater than 1?
true

Decide: is the reported value of switch fluorescence ratio for "ATGATGGCAA" equal to or greater than 1?
true

Decide: is the reported value of switch fluorescence ratio for "GGGGCGTGCA" equal to or greater than 1?
true

Decide: is the reported value of switch fluorescence ratio for "ACCCCCCTGT" equal to or greater than 1?
true

Decide: is the reported value of switch fluorescence ratio for "CTGTAAGGTT" equal to or greater than 1?
true

Decide: is the reported value of switch fluorescence ratio for "ATTTAGGGGG" equal to or greater than 1?
false

====

Reported switch fluorescence ratio by item:
Test system: ATP;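 note: ATP exposure 15 min at 22 °C before imaging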
protocolText: switch fluorescence ratio, 500 uM ATP over buffer (Cy3 cluster intensity, sum of 5 cycles each) (fold (ratio)); higher = stronger signal-on switching upon ATP binding; sequences stand for … in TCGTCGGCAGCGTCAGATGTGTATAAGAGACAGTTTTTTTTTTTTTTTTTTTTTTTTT…TC
conditionDescription: aptamer strand: ATP DNA aptamer (quencher-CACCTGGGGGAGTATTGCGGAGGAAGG + anchor), 100 nM annealed; ATP concentration: 500 uM
Give only the figure.

[[record]]
orderedresidues = "TTTTTAAGGA"
readoutnumber = 1.04


Please supply the value of reported switch fluorescence ratio for the item "TTTCTGACGT"
1.09

Please supply the value of reported switch fluorescence ratio for the item "TTTCTAATTT"
1.02

Please supply the value of reported switch fluorescence ratio for the item "TTTGAAGACA"
0.991

====

Tested on: ATP;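 note: ATP exposure 15 min at 22 °C before imaging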
protocolText: switch fluorescence ratio, 500 uM ATP over buffer (Cy3 cluster intensity, sum of 5 cycles each) (fold (ratio)); higher = stronger signal-on switching upon ATP binding; sequences stand for … in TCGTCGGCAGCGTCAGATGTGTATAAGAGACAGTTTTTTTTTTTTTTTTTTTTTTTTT…TC
conditionDescription: aptamer strand: ATP DNA aptamer (quencher-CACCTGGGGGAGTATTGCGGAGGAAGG + anchor), 100 nM annealed; ATP concentration: 500 uM
Reported switch fluorescence ratio by item:
Give only the figure.

Please supply the value of reported switch fluorescence ratio for the item "GATCCAGAAG"
1.02

Please supply the value of reported switch fluorescence ratio for the item "GAGTTTTTTA"
0.98

Please supply the value of reported switch fluorescence ratio for the item "CGATTGAATC"
0.991

Please supply the value of reported switch fluorescence ratio for the item "TTCCGGGGCC"
0.998

Please supply the value of reported switch fluorescence ratio for the item "CATAGAAGCT"
0.976

Please supply the value of reported switch fluorescence ratio for the item "ATGCTATTGT"
1.03

Please supply the value of reported switch fluorescence ratio for the item "TCGTGCCAGG"
1.03

Please supply the value of reported switch fluorescence ratio for the item "ACGTATCCGG"
0.993

====

Test system: ATP;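 note: ATP exposure 15 min at 22 °C before imaging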
protocolText: switch fluorescence ratio, 500 uM ATP over buffer (Cy3 cluster intensity, sum of 5 cycles each) (fold (ratio)); higher = stronger signal-on switching upon ATP binding; sequences stand for … in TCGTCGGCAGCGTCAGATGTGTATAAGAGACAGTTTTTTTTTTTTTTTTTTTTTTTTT…TC
conditionDescription: aptamer strand: ATP DNA aptamer (quencher-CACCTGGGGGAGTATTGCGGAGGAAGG + anchor), 100 nM annealed; ATP concentration: 500 uM
Reported switch fluorescence ratio by item:

Below, 3 sequences whose answers are already recorded.
[[record]]
orderedresidues = "AAGCTCGCCG"
reportedproperty = "switch fluorescence ratio"
result = 0.981

[[record]]
orderedresidues = "ATCATGGCAC"
reportedproperty = "switch fluorescence ratio"
result = 1.04

[[record]]
orderedresidues = "TACCATTTAG"
reportedproperty = "switch fluorescence ratio"
result = 0.997


Please supply the value of reported switch fluorescence ratio for the item "ATTAAATCCG"
1.04

Please supply the value of reported switch fluorescence ratio for the item "TAGGGAAGGG"
0.976

Please supply the value of reported switch fluorescence ratio for the item "TTGTTTCTTT"
1

Please supply the value of reported switch fluorescence ratio for the item "ATGTTGGGTA"
0.982

Please supply the value of reported switch fluorescence ratio for the item "TTGGCTTGGG"
1.01

Please supply the value of reported switch fluorescence ratio for the item "CATAATATTA"
0.97

Please supply the value of reported switch fluorescence ratio for the item "GGGCCCGGCA"
0.981

Please supply the value of reported switch fluorescence ratio for the item "CGTCCAGCGT"
1.2

Please supply the value of reported switch fluorescence ratio for the item "TTTTAATGCA"
0.977

Please supply the value of reported switch fluorescence ratio for the item "AGTATAGGGA"
1.01

====

Tested on: ATP;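 note: ATP exposure 15 min at 22 °C before imaging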
protocolText: switch fluorescence ratio, 500 uM ATP over buffer (Cy3 cluster intensity, sum of 5 cycles each) (fold (ratio)); higher = stronger signal-on switching upon ATP binding; sequences stand for … in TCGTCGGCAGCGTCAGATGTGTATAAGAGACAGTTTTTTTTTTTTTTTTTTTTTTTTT…TC
conditionDescription: aptamer strand: ATP DNA aptamer (quencher-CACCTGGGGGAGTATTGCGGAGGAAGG + anchor), 100 nM annealed; ATP concentration: 500 uM
Reported switch fluorescence ratio by item:
Give only the figure.

Below, 8 sequences whose answers are already recorded.
[[record]]
orderedresidues = "GGAGGTCTAC"
readoutnumber = 1.03

[[record]]
orderedresidues = "TTTCGTCGAA"
readoutnumber = 1.02

[[record]]
orderedresidues = "ATGCATGGAC"
readoutnumber = 1.11

[[record]]
orderedresidues = "CTATAAGTCT"
readoutnumber = 1.02

[[record]]
orderedresidues = "TCCGCGGGGA"
readoutnumber = 1.52

[[record]]
orderedresidues = "GCAACGGCGG"
readoutnumber = 1.01

[[record]]
orderedresidues = "CGATGCTGGT"
readoutnumber = 1.02

[[record]]
orderedresidues = "CGGTGACTCG"
readoutnumber = 1.03


Please supply the value of reported switch fluorescence ratio for the item "AGCTGGCAGC"
1.01

Please supply the value of reported switch fluorescence ratio for the item "TCACTATTTT"
1.01

====

Reported switch fluorescence ratio by item:
System: ATP;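 note: ATP exposure 15 min at 22 °C before imaging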
protocolText: switch fluorescence ratio, 500 uM ATP over buffer (Cy3 cluster intensity, sum of 5 cycles each) (fold (ratio)); higher = stronger signal-on switching upon ATP binding; sequences stand for … in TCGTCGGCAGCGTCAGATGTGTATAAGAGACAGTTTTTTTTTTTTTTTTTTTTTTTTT…TC
conditionDescription: aptamer strand: ATP DNA aptamer (quencher-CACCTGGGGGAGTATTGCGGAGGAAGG + anchor), 100 nM annealed; ATP concentration: 500 uM
Give only the figure.

Below, 5 sequences whose answers are already recorded.
[[record]]
orderedresidues = "TGAAATTTTA"
systemname = "ATP"
readoutnumber = 0.993

[[record]]
orderedresidues = "TTGAGAGGAT"
systemname = "ATP"
readoutnumber = 0.972

[[record]]
orderedresidues = "GAGGCGCAGT"
systemname = "ATP"
readoutnumber = 0.999

[[record]]
orderedresidues = "AGTGAGAT"
systemname = "ATP"
readoutnumber = 0.994

[[record]]
orderedresidues = "AAGCGTTGAG"
systemname = "ATP"
readoutnumber = 1.01


Now examine the next entry.
Please supply the value of reported switch fluorescence ratio for the item "ATATTATTAA"
0.975

====

System: ATP;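 note: ATP exposure 15 min at 22 °C before imaging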
protocolText: switch fluorescence ratio, 500 uM ATP over buffer (Cy3 cluster intensity, sum of 5 cycles each) (fold (ratio)); higher = stronger signal-on switching upon ATP binding; sequences stand for … in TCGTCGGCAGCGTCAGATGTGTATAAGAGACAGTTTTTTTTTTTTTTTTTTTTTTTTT…TC
conditionDescription: aptamer strand: ATP DNA aptamer (quencher-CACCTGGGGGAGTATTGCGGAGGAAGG + anchor), 100 nM annealed; ATP concentration: 500 uM
Reported switch fluorescence ratio by item:
Give only the figure.

Below, 3 sequences whose answers are already recorded.
[[record]]
orderedresidues = "TAGGGTGCTG"
readoutnumber = 1.09

[[record]]
orderedresidues = "ACCGGAGGGG"
readoutnumber = 1.17

[[record]]
orderedresidues = "CATGCGAGGG"
readoutnumber = 1


Find the measured switch fluorescence ratio of "TTCGTGACTT" with ATP as test system.
1.02
